Tested on: PPARg:RXRa (NR concentration 180 nM, RXRa partner concentration 90 nM)
METHOD_SUMMARY: PBM binding z-score (relative to random genomic background probes); higher = stronger binding; sequences stand for … in GC…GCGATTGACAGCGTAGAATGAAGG
VALUE_KIND: PBM binding z-score
Answers are plain numbers.

Example entries begin here.
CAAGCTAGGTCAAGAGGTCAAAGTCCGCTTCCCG : 6.82
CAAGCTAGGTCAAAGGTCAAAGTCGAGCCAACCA : 12.9
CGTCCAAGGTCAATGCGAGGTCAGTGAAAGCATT : 4.59
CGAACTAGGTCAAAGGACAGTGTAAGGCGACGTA : 9.94
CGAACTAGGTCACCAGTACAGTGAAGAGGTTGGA : 8.77

Batch request: PBM binding z-score for each of the following sequences.
1. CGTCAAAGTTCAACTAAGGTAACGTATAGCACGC
2. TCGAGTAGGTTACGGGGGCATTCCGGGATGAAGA
3. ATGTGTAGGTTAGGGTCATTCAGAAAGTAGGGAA
4. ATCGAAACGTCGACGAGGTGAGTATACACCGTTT
5. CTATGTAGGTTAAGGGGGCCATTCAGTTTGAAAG
6. AGTCAAAGTTCAGGACGAGGTCACGTAAAGCACG
7. AGTCAAAGTTCAGGACGAGGTAATGTAAAGCACG
8. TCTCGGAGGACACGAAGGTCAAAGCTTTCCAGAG

[5.1, 5.89, 4.57, 0.855, 7, 6.17, 4.31, 1.14]

Take each entry in turn and give its PBM binding z-score.
1. CCTACGGGGCCAAGGTCATTGATCAGTCAAAGCA
2. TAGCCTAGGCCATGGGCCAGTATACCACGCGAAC
3. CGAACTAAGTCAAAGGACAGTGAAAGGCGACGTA
4. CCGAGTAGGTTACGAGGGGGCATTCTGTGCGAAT
5. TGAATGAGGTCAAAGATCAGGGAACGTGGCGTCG
6. GCTAGTTTGTCAGTAAAAGGTCACACACCGGTCG

2.83
0.326
2.74
2.22
9.41
3.19

Record PBM binding z-score for all entries; do not skip any.
1. TAGCCTAGGTCCTTCAGGGGCCAGTATAGAAAGC
2. CTAACTAGGTCACCAGGACAGTGAAGAGGTTGGA
3. CCGACTGGGTCAAAGGTTACCATACTCAGTACGA
4. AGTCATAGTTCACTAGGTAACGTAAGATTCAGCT
5. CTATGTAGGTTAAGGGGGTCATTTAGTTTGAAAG
6. ATATGTAGGTTAGGGTCATTCATAAAGTAGGGAA
7. CGTCAAAGTTCAACTAATGTAACGTAAAGCACGC
8. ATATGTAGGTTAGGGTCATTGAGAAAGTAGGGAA

1. -0.229
2. 9.24
3. 12
4. 3.89
5. 8.48
6. 8.24
7. 4.72
8. 7.58

For each listed entry, give its PBM binding z-score.
1. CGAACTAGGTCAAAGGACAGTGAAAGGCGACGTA
2. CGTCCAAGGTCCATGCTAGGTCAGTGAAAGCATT
3. CTATTTAGGTTAAGGGGGTCATTCAGTTTGAAAG
4. CCTAGCAGGCGAGGGTCACTCAAGCATTTCGCTT
5. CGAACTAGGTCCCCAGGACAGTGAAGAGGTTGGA

1. 10.1
2. -0.453
3. 7.22
4. 0.461
5. 0.418
